- Test system: MCF7 breast cancer cells
- testDetails: Sulforhodamine B (SRB) colorimetric cytotoxicity assay, MCF7
- conditionParameters: read-out: IC50 (cytotoxicity), agent alone; MCF7 cells; 48 hours
pIC50: −log10 of the molar value.
endpointName: pIC50

Enquiry: Answer with the recorded pIC50 of `Nc1nc(OCc2ccccc2)c2nc[nH]c2n1` only.
Return: ~4.04

====

- Tested on: MDA-MB-468 breast cancer cells
- testDetails: Sulforhodamine B (SRB) colorimetric cytotoxicity assay, MDA-MB-468
- conditionParameters: read-out: IC50 (cytotoxicity), agent alone; MDA-MB-468 cells; 48 hours
pIC50: −log10 of the molar value.
endpointName: pIC50

Enquiry: Identify the reported pIC50 for the following entry. `Nc1nc(OCc2ccccc2)c2nc[nH]c2n1`
Return: ~4.00
